// provenance: ChEMBL document CHEMBL3826928

- Test system: Toll-like receptor 7 (Homo sapiens)
- Sequence (Q9NYK1 whole entry): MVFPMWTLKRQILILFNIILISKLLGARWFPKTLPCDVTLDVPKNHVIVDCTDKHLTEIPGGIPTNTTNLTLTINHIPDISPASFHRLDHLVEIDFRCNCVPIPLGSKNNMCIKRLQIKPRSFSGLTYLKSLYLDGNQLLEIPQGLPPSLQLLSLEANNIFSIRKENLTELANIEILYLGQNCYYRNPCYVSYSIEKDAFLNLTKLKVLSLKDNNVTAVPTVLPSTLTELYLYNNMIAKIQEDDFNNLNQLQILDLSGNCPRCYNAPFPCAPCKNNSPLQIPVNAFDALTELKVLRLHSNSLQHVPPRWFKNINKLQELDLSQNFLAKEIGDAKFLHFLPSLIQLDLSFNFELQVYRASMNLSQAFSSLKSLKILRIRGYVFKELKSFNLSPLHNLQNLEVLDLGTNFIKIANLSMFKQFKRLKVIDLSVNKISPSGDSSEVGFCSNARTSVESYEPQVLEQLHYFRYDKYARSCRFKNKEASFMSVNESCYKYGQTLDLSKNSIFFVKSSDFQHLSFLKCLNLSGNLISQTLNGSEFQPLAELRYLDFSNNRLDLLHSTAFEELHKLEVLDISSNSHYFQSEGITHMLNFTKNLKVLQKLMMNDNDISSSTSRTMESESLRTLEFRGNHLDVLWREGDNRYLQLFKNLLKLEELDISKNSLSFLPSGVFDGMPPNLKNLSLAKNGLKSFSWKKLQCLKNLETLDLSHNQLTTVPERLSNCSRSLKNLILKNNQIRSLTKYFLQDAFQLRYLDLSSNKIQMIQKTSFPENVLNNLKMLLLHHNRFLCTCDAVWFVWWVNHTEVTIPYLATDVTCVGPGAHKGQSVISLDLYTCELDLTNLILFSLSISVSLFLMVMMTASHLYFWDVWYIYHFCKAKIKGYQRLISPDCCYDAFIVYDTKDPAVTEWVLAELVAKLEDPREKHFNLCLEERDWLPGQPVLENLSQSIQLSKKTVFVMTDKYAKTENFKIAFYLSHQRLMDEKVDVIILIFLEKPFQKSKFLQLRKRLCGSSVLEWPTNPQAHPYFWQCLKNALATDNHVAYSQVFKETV
- Procedure summary: Agonist activity at TLR7 in human PBMC assessed as induction of IL-6 secretion in supernatant after 18 hrs
- Cond: read-out: EC50
pEC50: −log10 of the molar value.
Please enter true (1) where pEC50 is greater than or equal to 6, and false (0) where it is lower.

*Q* Test whether the compound Cc1cc(OCCCP(=O)(O)O)ccc1CCc1cnc2c(N)nc3cc(CCC(=O)O)ccc3c2c1 records pEC50 of 6 or higher.
*A* true (1)

*Q* Test whether the compound COc1ccc(CCc2cnc3c(N)nc4cc(CCP(=O)(O)O)ccc4c3c2)c(C)c1 records pEC50 of 6 or higher.
*A* true (1)

*Q* Test whether the compound Cc1cc(OCCOCCOCCP(=O)(O)O)ccc1CCc1cnc2c(N)nc3cc(CCC(=O)O)ccc3c2c1 records pEC50 of 6 or higher.
*A* true (1)

*Q* Test whether the compound COc1ccc(CCc2cnc3c(N)nc4cc(/C=C(\F)P(=O)(O)O)ccc4c3c2)c(C)c1 records pEC50 of 6 or higher.
*A* false (0)

*Q* Test whether the compound Cc1ccc2c(c1)nc(N)c1ncc(CCc3ccc(OCCCC(F)(F)P(=O)(O)O)cc3C)cc12 records pEC50 of 6 or higher.
*A* false (0)

*Q* Test whether the compound COc1ccc(CCc2cnc3c(N)nc4cc(/C=C/P(=O)(O)O)ccc4c3c2)c(C)c1 records pEC50 of 6 or higher.
*A* false (0)
